Provide the reported viability, T/C of each item.
system: PDC 899932-113-R3-J6 complex spheroid viability; test: Anticancer human tumor 899932-113-R3-J6-PDC patient-derived melanoma cell line growth inhibition [RAS]; conditions: second compound 0.003 µM; first compound 0.0316 µM; hits give low values
Numbers only, in %.

- compound: "CC1(O)CCCC1n1c(=O)c(C(F)F)cc2cnc(NC3CCN(S(C)(=O)=O)CC3)nc21 (configuration not stated) + CCn1c(-c2cc(N3CCN(C)CC3)cnc2C(C)OC)c2c3cc(ccc31)-c1csc(n1)CC(NC(=O)C1CC1C)C(=O)N1CCCC(N1)C(=O)OCC(C)(C)C2"
  unitSymbol: "%"
  viability, T/C: 41.5

# evaluate next
Quick one: viability, T/C for CC(C)n1nc(-c2ccc3oc(N)nc3c2)c2c(N)ncnc21 + CCn1c(-c2cc(N3CCN(C)CC3)cnc2C(C)OC)c2c3cc(ccc31)-c1csc(n1)CC(NC(=O)C1CC1C)C(=O)N1CCCC(N1)C(=O)OCC(C)(C)C2 ?
29.1

----------
tested on: PDC 899932-113-R3-J6 complex spheroid viability; assay: Anticancer human tumor 899932-113-R3-J6-PDC cell line growth inhibition [RAS]; conditions: second compound 0.3 µM; first compound 0.0949 µM; hits give low values;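 also: spheroids exposed to agents for seven days before readout; 100% = DMSO vehicle control wells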
assayReadout: viability, T/C (%)
Answers are plain numbers, in %.

Sample records with viability, T/C:
- compound: "CC1(C)CCC(Nc2ncc(C(F)(F)F)c(-c3c[nH]c4c(P(C)(C)=O)c(C#N)ccc34)n2)CN1 (centres undefined) + CCn1c(-c2cc(N3CCN(C)CC3)cnc2C(C)OC)c2c3cc(ccc31)-c1csc(n1)CC(NC(=O)C1CC1C)C(=O)N1CCCC(N1)C(=O)OCC(C)(C)C2"
  reading: 1.86
- compound: "CCc1c2c(nc3ccc(O)cc13)-c1cc3c(c(=O)n1C2)COC(=O)[C@]3(O)CC + CCn1c(-c2cc(N3CCN(C)CC3)cnc2C(C)OC)c2c3cc(ccc31)-c1csc(n1)CC(NC(=O)C1CC1C)C(=O)N1CCCC(N1)C(=O)OCC(C)(C)C2"
  reading: 1.47
- compound: "CC1(C)CCC(Nc2ncc(C(F)(F)F)c(-c3c[nH]c4c(P(C)(C)=O)c(C#N)ccc34)n2)CN1 (centres undefined) + CCn1c(-c2cccnc2C(C)OC)c2c3cc(ccc31)N1CCOC(CC(NC(=O)C(C(C)C)N(C)C(=O)C3(F)CCN(C(=O)C#CC(C)(C)N(C)C)CC3)C(=O)N3CCCC(N3)C(=O)OCC(C)(C)C2)C1"
  reading: 37.4

Hi! What's the reported viability, T/C for CCc1c2c(nc3ccc(O)cc13)-c1cc3c(c(=O)n1C2)COC(=O)[C@]3(O)CC + CCn1c(-c2cccnc2C(C)OC)c2c3cc(ccc31)N1CCOC(CC(NC(=O)C(C(C)C)N(C)C(=O)C3(F)CCN(C(=O)C#CC(C)(C)N(C)C)CC3)C(=O)N3CCCC(N3)C(=O)OCC(C)(C)C2)C1 on PDC 899932-113-R3-J6 complex spheroid viability?
42.8

----------
Provide the reported viability, T/C of each item.
system: PDC 899932-113-R3-J6 complex spheroid viability; assay: Anticancer human tumor 899932-113-R3-J6-PDC cell line growth inhibition [RAS]; conditions: second compound 0.01 µM; first compound 0.1 µM; hits give low values;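 also: spheroids exposed to agents for seven days before readout; 100% = DMSO vehicle control wells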
Give bare numbers, in %.

Sample records with viability, T/C:
- compound: "CC(C)n1nc(-c2ccc3oc(N)nc3c2)c2c(N)ncnc21 + C=CC(=O)N1CCN(c2nc(OCC3CCCN3C)nc3c(F)c(-c4nc(N)cc(C)c4C(F)(F)F)c(Cl)cc23)C(C)C1"
  studyTarget: "PDC 899932-113-R3-J6 complex spheroid viability"
  viability, T/C / %: 52.6
- compound: "Nc1ccn(C2OC(CO)C(O)C2(F)F)c(=O)n1 (stereo not drawn) + C=CC(=O)N1CCN(c2nc(OCC3CCCN3C)nc3c(F)c(-c4nc(N)cc(C)c4C(F)(F)F)c(Cl)cc23)C(C)C1"
  studyTarget: "PDC 899932-113-R3-J6 complex spheroid viability"
  viability, T/C / %: 20

# evaluate next
Quick one: viability, T/C for Cc1nc(N2CCC3(CC2)COC(C)C3N)c(CO)nc1Sc1ccnc(N)c1Cl (stereo not drawn) + C=CC(=O)N1CCN(c2nc(OCC3CCCN3C)nc3c(F)c(-c4nc(N)cc(C)c4C(F)(F)F)c(Cl)cc23)C(C)C1 ?
109
